- EXPERIMENTAL_DETAILS: Inhibition of maltase in rat small intestinal brush border membrane vesicles using maltose as substrate incubated for 30 mins by glucose-oxidase method
- Assay type: cell membranes, Small intestine, Membrane vesicle
EXPERIMENTAL_READOUT: pIC50
The read-out pIC50 is expressed as -log10 of concentration in moles per litre.

Examples with answers:
[[record]]
compound = "OC[C@@H]1[C@@H](O)[C@H](O)C[S@@+]1C[C@@H](O)[C@H]1OC(c2cccc(Cl)c2)OC[C@H]1O (stereo partly specified)"
experimental_readout = "pIC50"
assay_result = 5.51

[[record]]
compound = "OC[C@@H]1[C@@H](O)[C@H](O)C[S@@+]1C[C@@H](O)[C@H]1OC(c2ccc(F)cc2)OC[C@H]1O (stereo partly specified)"
experimental_readout = "pIC50"
assay_result = 5.52

[[record]]
compound = "OC[C@@H]1[C@@H](O)[C@H](O)C[S@@+]1C[C@@H](O)[C@H]1OC(c2ccccc2F)OC[C@H]1O (stereo partly specified)"
experimental_readout = "pIC50"
assay_result = 6.08


Task item: Would you mind telling me what pIC50 value was observed for OC[C@@H]1[C@@H](O)[C@H](O)C[S@@+]1C[C@@H](O)[C@H]1OC(c2ccccc2Cl)OC[C@H]1O (stereo partly specified) ?
Reply: 6.39

Task item: What about this compound? OC[C@@H]1[C@@H](O)[C@H](O)C[S@@+]1C[C@@H](O)[C@H]1OC(c2ccc(C(F)(F)F)cc2)OC[C@H]1O (stereo partly specified)
Reply: 5.46

Task item: What about this compound? OC[C@@H]1[C@@H](O)[C@H](O)C[S@@+]1C[C@@H](O)[C@@H](O)[C@@H](O)[C@@H](O)CO
Reply: 5.11

====

- Tested on: Rattus norvegicus
- EXPERIMENTAL_DETAILS: Antihyperglycemic activity in fasted rat assessed as decrease in blood glucose level at 1 mg/kg measured after 15 mins by maltose loading test relative to control
- Assay type: functional
- Design: scale not given: the % may be the effect or the level left
- SETUP_CONDITIONS: 0.25 h
EXPERIMENTAL_READOUT: Activity (%)
Express your answer in %, writing the number without its unit.

Examples with answers:
[[record]]
compound = "OCC(CO)N[C@H]1C[C@](O)(CO)[C@@H](O)[C@H](O)[C@H]1O"
experimental_readout = "Activity"
assay_result = 50

[[record]]
compound = "Cl.O=[N+]([O-])c1ccccc1C1OC[C@@H](O)[C@@H]([C@H](O)C[S@+]2C[C@@H](O)[C@H](O)[C@H]2CO)O1 (some centres undefined)"
experimental_readout = "Activity"
assay_result = 50

[[record]]
compound = "OC[C@@H]1[C@@H](O)[C@H](O)C[S@@+]1C[C@@H](O)[C@H]1OC(c2ccccc2C(F)(F)F)OC[C@H]1O.[Cl-] (some centres undefined)"
experimental_readout = "Activity"
assay_result = 45.7


Task item: Would you mind telling me what Activity value was observed for OC[C@@H]1[C@@H](O)[C@H](O)C[S@@+]1C[C@@H](O)[C@@H](O)[C@@H](O)[C@@H](O)CO ?
Reply: 35.3

====

- EXPERIMENTAL_TARGET: Sucrase-isomaltase, intestinal (Rattus norvegicus)
- Sequence (P23739 1-1013 limits assumed): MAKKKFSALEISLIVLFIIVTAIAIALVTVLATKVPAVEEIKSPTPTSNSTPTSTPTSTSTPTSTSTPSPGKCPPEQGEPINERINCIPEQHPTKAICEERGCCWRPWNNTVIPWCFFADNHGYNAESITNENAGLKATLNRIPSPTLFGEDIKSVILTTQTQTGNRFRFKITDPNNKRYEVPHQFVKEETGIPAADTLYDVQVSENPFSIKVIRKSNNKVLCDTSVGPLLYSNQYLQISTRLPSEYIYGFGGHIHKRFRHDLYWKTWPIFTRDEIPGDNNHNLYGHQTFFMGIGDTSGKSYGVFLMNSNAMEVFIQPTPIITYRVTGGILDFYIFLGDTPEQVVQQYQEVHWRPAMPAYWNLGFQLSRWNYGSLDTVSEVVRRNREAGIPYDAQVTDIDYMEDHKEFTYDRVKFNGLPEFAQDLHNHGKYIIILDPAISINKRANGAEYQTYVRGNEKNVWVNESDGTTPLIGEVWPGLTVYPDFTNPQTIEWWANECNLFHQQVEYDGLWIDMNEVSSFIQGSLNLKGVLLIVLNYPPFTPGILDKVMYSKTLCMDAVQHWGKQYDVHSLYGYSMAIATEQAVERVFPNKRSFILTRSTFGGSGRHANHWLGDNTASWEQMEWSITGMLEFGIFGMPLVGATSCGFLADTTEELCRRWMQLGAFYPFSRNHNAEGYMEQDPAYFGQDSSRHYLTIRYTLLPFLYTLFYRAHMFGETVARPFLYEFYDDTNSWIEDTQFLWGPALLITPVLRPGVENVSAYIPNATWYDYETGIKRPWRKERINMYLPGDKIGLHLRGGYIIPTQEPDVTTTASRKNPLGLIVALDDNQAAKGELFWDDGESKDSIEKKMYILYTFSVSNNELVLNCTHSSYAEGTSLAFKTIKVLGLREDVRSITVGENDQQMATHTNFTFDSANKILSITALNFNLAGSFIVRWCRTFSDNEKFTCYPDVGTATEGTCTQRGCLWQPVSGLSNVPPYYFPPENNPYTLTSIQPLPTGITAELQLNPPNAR
- Sequence (P23739 1014-1841 limits assumed): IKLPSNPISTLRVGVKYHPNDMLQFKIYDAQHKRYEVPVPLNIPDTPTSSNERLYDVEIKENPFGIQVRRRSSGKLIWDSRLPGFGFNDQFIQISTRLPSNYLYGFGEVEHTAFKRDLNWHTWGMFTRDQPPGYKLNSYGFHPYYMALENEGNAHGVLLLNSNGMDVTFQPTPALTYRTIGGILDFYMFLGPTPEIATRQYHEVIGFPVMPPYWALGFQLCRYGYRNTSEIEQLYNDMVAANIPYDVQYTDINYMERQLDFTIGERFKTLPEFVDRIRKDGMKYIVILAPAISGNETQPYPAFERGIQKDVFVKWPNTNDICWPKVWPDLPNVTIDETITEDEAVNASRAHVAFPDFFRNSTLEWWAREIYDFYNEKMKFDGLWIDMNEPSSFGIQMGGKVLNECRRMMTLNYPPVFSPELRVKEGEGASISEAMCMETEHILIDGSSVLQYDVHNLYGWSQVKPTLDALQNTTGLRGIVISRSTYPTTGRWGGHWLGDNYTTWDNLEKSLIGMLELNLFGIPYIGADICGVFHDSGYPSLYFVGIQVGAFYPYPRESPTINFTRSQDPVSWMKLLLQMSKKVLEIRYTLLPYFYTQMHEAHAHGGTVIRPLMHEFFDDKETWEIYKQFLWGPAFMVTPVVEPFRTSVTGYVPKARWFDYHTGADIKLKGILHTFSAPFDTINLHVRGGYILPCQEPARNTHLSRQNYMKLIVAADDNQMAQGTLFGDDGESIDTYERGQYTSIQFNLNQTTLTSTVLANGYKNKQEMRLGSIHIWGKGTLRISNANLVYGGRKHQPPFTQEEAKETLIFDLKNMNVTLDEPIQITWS
- EXPERIMENTAL_DETAILS: Inhibition of sucrase in rat small intestinal brush border membrane vesicles using sucrose as substrate incubated for 30 mins by glucose-oxidase method
// values below are reported pIC50
The read-out pIC50 is expressed as -log10 of concentration in moles per litre.

[[record]]
compound = "OC[C@@H]1[C@@H](O)[C@H](O)C[S@@+]1C[C@@H](O)[C@@H](O)[C@@H](O)[C@@H](O)CO"
assay_result = 5.72


Task item: Would you mind telling me what pIC50 value was observed for OC[C@@H]1[C@@H](O)[C@H](O)C[S@@+]1C[C@@H](O)[C@H]1OC(c2ccccc2)OC[C@H]1O (some centres undefined) ?
Reply: 6.38

Task item: What about this compound? OC[C@@H]1[C@@H](O)[C@H](O)C[S@@+]1C[C@@H](O)[C@H]1OC(c2cccc(Cl)c2)OC[C@H]1O (some centres undefined)
Reply: 5.72

Task item: What about this compound? OC[C@@H]1[C@@H](O)[C@H](O)C[S@@+]1C[C@@H](O)[C@H]1OC(c2ccc(Cl)cc2)OC[C@H]1O (some centres undefined)
Reply: 5.64

Task item: What about this compound? OC[C@@H]1[C@@H](O)[C@H](O)C[S@@+]1C[C@@H](O)[C@H]1OC(c2ccccc2F)OC[C@H]1O (some centres undefined)
Reply: 6.40

Task item: What about this compound? OC[C@@H]1[C@@H](O)[C@H](O)C[S@@+]1C[C@@H](O)[C@H]1OC(c2cccc(C(F)(F)F)c2)OC[C@H]1O (some centres undefined)
Reply: 6.52

Task item: What about this compound? OC[C@@H]1[C@@H](O)[C@H](O)C[S@@+]1C[C@@H](O)[C@H]1OC(c2ccccc2Cl)OC[C@H]1O (some centres undefined)
Reply: 6.27

Task item: What about this compound? O=[N+]([O-])c1cccc(C2OC[C@@H](O)[C@@H]([C@H](O)C[S@+]3C[C@@H](O)[C@H](O)[C@H]3CO)O2)c1 (some centres undefined)
Reply: 5.47

Task item: What about this compound? OC[C@@H]1[C@@H](O)[C@H](O)C[S@@+]1C[C@@H](O)[C@H]1OC(c2ccc(C(F)(F)F)cc2)OC[C@H]1O (some centres undefined)
Reply: 5.64

Task item: What about this compound? OC[C@@H]1[C@@H](O)[C@H](O)C[S@@+]1C[C@@H](O)[C@H]1OC(c2ccccc2C(F)(F)F)OC[C@H]1O.[Cl-] (some centres undefined)
Reply: 6.66

Task item: What about this compound? OC[C@@H]1[C@@H](O)[C@H](O)C[S@@+]1C[C@@H](O)[C@H]1OC(c2ccc(F)cc2)OC[C@H]1O (some centres undefined)
Reply: 5.60

Task item: What about this compound? OC[C@@H]1[C@@H](O)[C@H](O)C[S@@+]1C[C@@H](O)[C@H]1OC(c2cccc(F)c2)OC[C@H]1O (some centres undefined)
Reply: 6.15

Task item: What about this compound? Cl.O=[N+]([O-])c1ccccc1C1OC[C@@H](O)[C@@H]([C@H](O)C[S@+]2C[C@@H](O)[C@H](O)[C@H]2CO)O1 (some centres undefined)
Reply: 7.00

Task item: What about this compound? O=[N+]([O-])c1ccc(C2OC[C@@H](O)[C@@H]([C@H](O)C[S@+]3C[C@@H](O)[C@H](O)[C@H]3CO)O2)cc1 (some centres undefined)
Reply: 5.33

====

- System: Rattus norvegicus
- EXPERIMENTAL_DETAILS: Antihyperglycemic activity in fasted rat assessed as decrease in blood glucose level at 1 mg/kg measured after 60 mins by maltose loading test relative to control
- Type: functional
- Parameters: scale not given: the % may be the effect or the level left
// values below are reported Activity
Express your answer in %, writing the number without its unit.

Examples with answers:
[[record]]
compound = "Cl.O=[N+]([O-])c1ccccc1C1OC[C@@H](O)[C@@H]([C@H](O)C[S@+]2C[C@@H](O)[C@H](O)[C@H]2CO)O1 (some centres undefined)"
assay_result = 48.3

[[record]]
compound = "OC[C@@H]1[C@@H](O)[C@H](O)C[S@@+]1C[C@@H](O)[C@H]1OC(c2ccccc2C(F)(F)F)OC[C@H]1O.[Cl-] (some centres undefined)"
assay_result = 43.2

[[record]]
compound = "OCC(CO)N[C@H]1C[C@](O)(CO)[C@@H](O)[C@H](O)[C@H]1O [VOGLIBOSE]"
assay_result = 43.3


Shift focus to the following entry.
Task item: Would you mind telling me what Activity value was observed for OC[C@@H]1[C@@H](O)[C@H](O)C[S@@+]1C[C@@H](O)[C@@H](O)[C@@H](O)[C@@H](O)CO ?
Reply: 19.8

====

- EXPERIMENTAL_DETAILS: Inhibition of maltase in rat small intestinal brush border membrane vesicles using maltose as substrate incubated for 30 mins by glucose-oxidase method
- Format: cell membranes, Small intestine, Membrane vesicle
// values below are reported IC50
Value and unit, in that order.

[[record]]
compound = "O=[N+]([O-])c1ccc(C2OC[C@@H](O)[C@@H]([C@H](O)C[S@+]3C[C@@H](O)[C@H](O)[C@H]3CO)O2)cc1 (some centres undefined)"
experimental_readout = "IC50"
assay_result = "4500 nM"

[[record]]
compound = "OC[C@@H]1[C@@H](O)[C@H](O)C[S@@+]1C[C@@H](O)[C@H]1OC(c2ccc(Cl)cc2)OC[C@H]1O (some centres undefined)"
experimental_readout = "IC50"
assay_result = "4000 nM"

[[record]]
compound = "OC[C@@H]1[C@@H](O)[C@H](O)C[S@@+]1C[C@@H](O)[C@H]1OC(c2ccccc2)OC[C@H]1O (some centres undefined)"
experimental_readout = "IC50"
assay_result = "830 nM"


Shift focus to the following entry.
Task item: Would you mind telling me what IC50 value was observed for Cl.O=[N+]([O-])c1ccccc1C1OC[C@@H](O)[C@@H]([C@H](O)C[S@+]2C[C@@H](O)[C@H](O)[C@H]2CO)O1 (some centres undefined) ?
Reply: 200 nM
